Biological target: Lck SH2 domain (Homo sapiens, UniProt P06239)
Construct: Lck SH2 domain expressed and purified as a fusion protein with Glutathione-S-transferase; made in house
Sequence (P06239 127-224 limits assumed): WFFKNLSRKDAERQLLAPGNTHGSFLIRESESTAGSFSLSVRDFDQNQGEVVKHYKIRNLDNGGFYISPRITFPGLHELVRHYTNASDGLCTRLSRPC
Assay: in vitro binding between Lck SH2 domain (GST fusion) and biotinylated phosphotyrosyl peptide
Conditions: read-out: half-maximal inhibitory concentration (IC50) of binding to Lck SH2 domain; GST-Lck SH2, 1 μM biotinylated pY peptide, 0.03~300 μg/ml tested
readout: IC50 (µM)

>>> valuemeasured("CC(C)(C)[Si](C)(C)Oc1ccc(/C=C/C(=O)O[C@@H](Cc2ccc(O)c(O)c2)C(=O)O)cc1O[Si](C)(C)C(C)(C)C")
22.1
